MEASURED ON: AMPA ((RS)-α-amino-3-hydroxy-5-methyl-4-isoxazolepropionic acid) binding site
EXPERIMENTAL PROTOCOL: AMPA binding assay (T. Honoré et al., Neuroscience Letters 54, 27-32 (1985))
pIC50: −log10 of the molar value.
ASSAY ENDPOINT: pIC50

[I] O=C1CCCc2c3c(cc([N+](=O)[O-])c2N1)C(=NO)C(=O)N3
[II] CN1Cc2c(S(=O)(=O)N(C)C)cc3c(c2C1)NC(=O)C3=NO
[III] CN1Cc2ccc3c(c2C1)NC(=O)C3=NO
Reorder the list above by recorded pIC50 in ascending order. Labels, ranked as asked.
I, III, II
